The reported measurements were obtained from patent US20070244048A1.

- tested target: T1, mouse NMUR1-ATG (mouse, UniProt O55040 1-428)
- T1 sequence (looked up): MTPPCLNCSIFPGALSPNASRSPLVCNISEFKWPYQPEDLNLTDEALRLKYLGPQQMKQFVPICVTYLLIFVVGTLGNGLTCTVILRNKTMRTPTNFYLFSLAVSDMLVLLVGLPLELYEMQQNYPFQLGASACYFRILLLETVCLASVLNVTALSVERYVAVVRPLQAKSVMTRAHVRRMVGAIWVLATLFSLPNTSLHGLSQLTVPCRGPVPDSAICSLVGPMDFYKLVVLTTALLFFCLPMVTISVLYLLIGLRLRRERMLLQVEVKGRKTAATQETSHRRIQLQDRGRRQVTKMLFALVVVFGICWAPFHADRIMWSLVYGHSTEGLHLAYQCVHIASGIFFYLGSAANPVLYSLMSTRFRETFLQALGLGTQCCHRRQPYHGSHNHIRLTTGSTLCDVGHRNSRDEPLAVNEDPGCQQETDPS
- experiment notes: cell-based or functional assay
Starred links: 1 amine or outer side, 2 acyl side, 3 side chain; linkers in the order of their positions; H or OH if unused. Non-standard residues stand in square brackets, D forms with d. *: point of attachment. Ttds = 1-amino-4,7,10-trioxa-13-tridecanamine succinimic acid spacer, O=C(CCC(=O)[*:2])NCCCOCCOCCOCCCN[*:1]; Succinimide(1-Et,3-yl) = CCN1C(=O)CC(*)C1=O
readout kind: % Activity (FLIPR) (%)
All answers are understood in %, so give the number only.

Please look up its % Activity (FLIPR): Ac-C(Succinimide(1-Et,3-yl))[Ttds]FLFRPRN-NH2 (SMILES CCN1C(=O)CC(SC[C@H](NC(C)=O)C(=O)NCCCOCCOCCOCCCNC(=O)CCC(=O)N[C@@H](Cc2ccccc2)C(=O)N[C@@H](CC(C)C)C(=O)N[C@@H](Cc2ccccc2)C(=O)N[C@@H](CCCNC(=N)N)C(=O)N2CCC[C@H]2C(=O)N[C@@H](CCCNC(=N)N)C(=O)N[C@@H](CC(N)=O)C(N)=O)C1=O) [NMU15]
100
